test_name: in vitro
Type: cell-based
recorded_conditions: human, neonatal fibroblasts (HDFn cells)
Where no end group is shown, it is not given here.
Field: viability at 24 h, 5 µM. Provide a value for each of the substances that follow.
A number alone suffices; assume %.

Which viability at 24 h, 5 µM is listed for GIKKKIIKKIIKII-NH2 [GIK, GIK(KKII)2 KII-NH2] ?
93

Which viability at 24 h, 5 µM is listed for GKIKKIIKKIIKII-NH2 [GKI, GKI(KKII)2 KII-NH2] ?
95

Which viability at 24 h, 5 µM is listed for GLLKKLLKKLLKKL-NH2 [GL, G(LLKK)3 L-NH2] ?
98

Which viability at 24 h, 5 µM is listed for GIIKKIIKKIIKKIIKKI-NH2 [Helix G4, G(IIKK)4 I-NH2] ?
95

###

test_name: in vitro
Format: cell-based
recorded_conditions: human, neonatal fibroblasts (HDFn cells)
Where a SMILES comes first, the peptide text is derived from it. [ ]: non-standard residue; d: D form. Orn = NCCC[C@H](N)C(=O)O
endpoint_name: viability at 24 h, 50 µM

Which viability at 24 h, 50 µM is listed for CC[C@H](C)[C@H](NC(=O)[C@H](CCCN)NC(=O)[C@H](CCCN)NC(=O)[C@@H](NC(=O)[C@@H](NC(=O)[C@H](CCCN)NC(=O)[C@H](CCCN)NC(=O)[C@@H](NC(=O)[C@@H](NC(=O)[C@H](CCCN)NC(=O)[C@H](CCCN)NC(=O)[C@@H](NC(=O)[C@@H](NC(=O)CN)[C@@H](C)CC)[C@@H](C)CC)[C@@H](C)CC)[C@@H](C)CC)[C@@H](C)CC)[C@@H](C)CC)C(N)=O [GO, G(IIOO)3 I-NH2] (H-GII[Orn][Orn]II[Orn][Orn]II[Orn][Orn]I-NH2) ?
88%

###

test_name: MTT viability of fibroblasts over three days
Format: cell-based, human
recorded_conditions: human, adult fibroblasts (HDFa cells)
Where a SMILES comes first, the peptide text is derived from it. [ ]: non-standard residue; d: D form. Orn = NCCC[C@H](N)C(=O)O
endpoint_name: viability at 72 h, 50 µM (%)
A number alone suffices; assume %.

Which viability at 72 h, 50 µM is listed for CC[C@H](C)[C@H](NC(=O)[C@H](CCCN)NC(=O)[C@H](CCCN)NC(=O)[C@@H](NC(=O)[C@@H](NC(=O)[C@H](CCCN)NC(=O)[C@H](CCCN)NC(=O)[C@@H](NC(=O)[C@@H](NC(=O)[C@H](CCCN)NC(=O)[C@H](CCCN)NC(=O)[C@@H](NC(=O)[C@@H](NC(=O)CN)[C@@H](C)CC)[C@@H](C)CC)[C@@H](C)CC)[C@@H](C)CC)[C@@H](C)CC)[C@@H](C)CC)C(N)=O [GO, G(IIOO)3 I-NH2] (H-GII[Orn][Orn]II[Orn][Orn]II[Orn][Orn]I-NH2) ?
78

###

test_name: MTT viability of fibroblasts over three days
Format: cell-based, human
recorded_conditions: human, adult fibroblasts (HDFa cells)
Where no end group is shown, it is not given here.
endpoint_name: viability at 72 h, 25 µM (%)
A number alone suffices; assume %.

Which viability at 72 h, 25 µM is listed for GKIKKIIKKIIKII-NH2 [GKI, GKI(KKII)2 KII-NH2] ?
75

Which viability at 72 h, 25 µM is listed for GIIKKIIKKIIKKI-NH2 [Helix G3, G(IIKK)3 I-NH2] ?
80

Which viability at 72 h, 25 µM is listed for GIKKKIIKKIIKII-NH2 [GIK, GIK(KKII)2 KII-NH2] ?
90

Which viability at 72 h, 25 µM is listed for GIIKKIIKKI-NH2 [Helix G2, G(IIKK)2 I-NH2] ?
88

Which viability at 72 h, 25 µM is listed for GIIKKIIKKIIKKIIKKI-NH2 [Helix G4, G(IIKK)4 I-NH2] ?
78

Which viability at 72 h, 25 µM is listed for GLLKKLLKKLLKKL-NH2 [GL, G(LLKK)3 L-NH2] ?
74
